target: human TRPA1 (Homo sapiens, UniProt O75762); construct: expressed in transfected cells; experiment: Cell-based functional intracellular calcium ([Ca2+]i) assay, Fluo-4/Fluo-8, FlexStation, challenge with reference TRPA1 agonist (FFA, AITC or 4-HNE); conditions: HEK293 cells expressing human TRPA1; IC50 class after addition of reference TRPA1 agonist (FFA, AITC or 4-HNE); read-out: human TRPA1-HEK Activity
Sequence (O75762 whole entry): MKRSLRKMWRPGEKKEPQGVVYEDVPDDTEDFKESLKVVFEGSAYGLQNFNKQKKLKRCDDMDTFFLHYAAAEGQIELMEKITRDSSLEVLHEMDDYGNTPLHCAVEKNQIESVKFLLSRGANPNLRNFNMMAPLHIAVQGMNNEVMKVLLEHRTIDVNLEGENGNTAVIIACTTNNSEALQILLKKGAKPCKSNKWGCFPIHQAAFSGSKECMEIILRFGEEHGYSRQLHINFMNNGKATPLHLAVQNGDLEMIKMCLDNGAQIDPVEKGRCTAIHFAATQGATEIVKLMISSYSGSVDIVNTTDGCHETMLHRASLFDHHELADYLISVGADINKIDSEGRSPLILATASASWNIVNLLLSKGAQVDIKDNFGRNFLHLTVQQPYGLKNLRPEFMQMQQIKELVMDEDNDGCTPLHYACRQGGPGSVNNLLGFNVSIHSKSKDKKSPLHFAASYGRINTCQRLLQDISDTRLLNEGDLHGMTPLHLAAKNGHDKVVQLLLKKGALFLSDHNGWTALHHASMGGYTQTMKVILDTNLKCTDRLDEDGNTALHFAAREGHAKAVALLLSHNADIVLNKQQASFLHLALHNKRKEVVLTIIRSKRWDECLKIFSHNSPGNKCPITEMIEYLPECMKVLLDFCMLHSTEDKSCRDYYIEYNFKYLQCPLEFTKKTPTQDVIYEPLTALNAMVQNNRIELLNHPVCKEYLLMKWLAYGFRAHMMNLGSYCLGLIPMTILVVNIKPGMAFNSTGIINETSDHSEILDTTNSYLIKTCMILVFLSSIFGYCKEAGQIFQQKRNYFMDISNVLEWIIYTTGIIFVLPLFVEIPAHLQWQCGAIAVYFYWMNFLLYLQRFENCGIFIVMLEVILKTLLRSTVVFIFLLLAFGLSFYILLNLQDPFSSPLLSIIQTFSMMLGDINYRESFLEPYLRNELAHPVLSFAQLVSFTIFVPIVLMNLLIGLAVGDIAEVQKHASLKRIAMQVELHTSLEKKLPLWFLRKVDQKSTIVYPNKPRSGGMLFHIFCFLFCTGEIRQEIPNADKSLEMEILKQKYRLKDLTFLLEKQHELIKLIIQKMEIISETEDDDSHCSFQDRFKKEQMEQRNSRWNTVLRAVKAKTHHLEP
pIC50: −log10 of the molar value.

- compound: "Cc1cnc(-c2cc(C(=O)N3CCC4(CC3)C(=O)NCN4c3ccc(F)cc3)nn2-c2ccc(C(F)(F)F)cc2)c(C)n1"
  pIC50: "< 4.60"
- compound: "O=C(c1cc(-c2ccnnc2)n(-c2cc(F)c(F)c(F)c2)n1)N1CCC(n2c(=O)[nH]c3ccc(F)c(F)c32)CC1"
  pIC50: "5.30 to 9.00"
- compound: "CC1CC(n2c(=S)[nH]c3ccc(F)c(F)c32)CCN1C(=O)c1cc(-c2cccnc2)n(-c2ccc(F)c(C(F)(F)F)c2)n1 (stereo not drawn)"
  pIC50: "5.30 to 9.00"
- compound: "O=C(c1cc(-c2ccncc2)n(-c2ccc(C(F)(F)F)cc2)n1)N1CCC(c2nc3ccccc3o2)CC1"
  pIC50: "< 4.60"
- compound: "O=C(c1cc(-c2ccncc2)n(-c2ccc(C(F)(F)F)cc2)n1)N1CCC2(CC1)OCc1ccccc12"
  pIC50: "< 4.60"
- compound: "O=C(c1nn(-c2ccc(F)c(C(F)(F)F)c2)c2c1CCc1ncccc1-2)N1CCC(n2c(=O)[nH]c3ccc(F)c(F)c32)CC1"
  pIC50: "5.30 to 9.00"
- compound: "CN1C(=O)NC2(CCN(C(=O)c3cc(-c4ccncc4)n(-c4cnccn4)n3)CC2)C1=O"
  pIC50: "< 4.60"
- compound: "O=C(c1cc(-c2ccncc2)n(-c2cccc(C(F)(F)F)c2)n1)N1CCC(n2c(=O)[nH]c3ccccc32)CC1"
  pIC50: "< 4.60"
- compound: "O=C1CSC2(CCN(C(=O)c3cc(-c4ccncc4)n(-c4ccc(C(F)(F)F)c(F)c4)n3)CC2)N1"
  pIC50: "< 4.60"
- compound: "O=C1Nc2ccccc2C1N1CCN(C(=O)c2cc(-c3cccnc3)n(-c3ccc(C(F)(F)F)c(F)c3)n2)CC1 (stereo not drawn)"
  pIC50: "< 4.60"
- compound: "Cc1cc(OC(F)(F)F)ccc1-n1nc(C(=O)N2CCC(n3c(=O)[nH]c4ccc(F)c(F)c43)CC2)cc1-c1cccnc1"
  pIC50: "5.30 to 9.00"
- compound: "O=C1Nc2ccc(F)cc2C2(CCN(C(=O)c3cc(-c4cccnc4)n(-c4ccc(F)c(C(F)(F)F)c4)n3)CC2)O1"
  pIC50: "5.30 to 9.00"
- compound: "O=C(c1cc(-c2ccncc2)n(-c2ccc(F)cc2F)n1)N1CCC(n2c(=O)[nH]c3ccccc32)CC1"
  pIC50: "< 4.60"
- compound: "O=C(c1cc(-c2ccncc2)n(-c2ccc(C(F)(F)F)cc2)n1)N1CCC2(CC1)SCCS2"
  pIC50: "< 4.60"
- compound: "O=C(c1cc(-c2cccnc2)n(-c2ccc(F)c(C(F)(F)F)c2)n1)N1CCC(n2c(=S)[nH]c3cc(F)c(F)c(F)c32)CC1"
  pIC50: "5.30 to 9.00"
- compound: "Cc1cc(N2CNC(=O)C23CCN(C(=O)c2cc(-c4cccnc4)n(-c4cc(F)c(F)c(F)c4)n2)CC3)cc(C)c1F"
  pIC50: "5.30 to 9.00"
- compound: "O=C(c1cc(-c2ccncc2)n(-c2ccccc2)n1)N1CCC(n2c(=O)[nH]c3ccccc32)CC1"
  pIC50: "< 4.60"
- compound: "Cc1cc(OC(F)(F)F)ccc1-n1nc(C(=O)N2CCC3(CC2)C(=O)NCN3c2ccc(F)c(F)c2)cc1-c1cccnc1"
  pIC50: "5.30 to 9.00"
- compound: "O=C(c1cc(-c2cccnc2)n(-c2ccc(F)c(C(F)(F)F)c2)n1)N1CCC(n2c(=O)[nH]c3cc(F)c(F)c(F)c32)CC1"
  pIC50: "5.30 to 9.00"
- compound: "Cn1c(=O)oc2ccc(NC(=O)c3cc(-c4ccncc4)n(-c4ccccc4)n3)cc21"
  pIC50: "< 4.60"
- compound: "Cc1cc(N2CNC(=O)C23CCN(C(=O)c2cc(-c4cccnc4)n(-c4ccc(F)c(C#N)c4)n2)CC3)cc(C)c1F"
  pIC50: "5.30 to 9.00"
- compound: "O=C(c1cc(-c2ccncc2)n(-c2cnccn2)n1)N1CCN2C(=O)OC[C@@H]2C1"
  pIC50: "4.60 to 5.30"
- compound: "O=C(c1cc(-c2ccncc2)n(-c2ccc(C(F)(F)F)cc2)n1)N1CCC2(CC1)C(=O)NCN2c1ccc(F)cc1"
  pIC50: "5.30 to 9.00"
- compound: "O=C1Nc2ccc(F)cc2C2(CCN(C(=O)c3cc(-c4cccnc4)n(-c4ccc(C(F)(F)F)c(F)c4)n3)CC2)O1"
  pIC50: "5.30 to 9.00"
- compound: "O=C1CSC2(CCN(C(=O)c3cc(-c4ccncc4)n(-c4ccc(F)c(F)c4)n3)CC2)N1"
  pIC50: "< 4.60"
- compound: "O=C(c1cc(-c2cccnc2)n(-c2ccc(C(F)(F)F)c(F)c2)n1)N1CCC2(CC1)C(=O)NCN2c1ccc(F)c(F)c1"
  pIC50: "5.30 to 9.00"
- compound: "O=C(c1cc(-c2cccnc2)n(-c2ccc(C(F)(F)F)cc2)n1)N1CCC2(CC1)C(=O)NCN2c1ccc(F)cc1"
  pIC50: "5.30 to 9.00"

Data provenance is patent US9951046B2.
